The variants listed here are annotated with their exon inclusion enrichment index.
B1: mRNA-splicing (parent)
chain: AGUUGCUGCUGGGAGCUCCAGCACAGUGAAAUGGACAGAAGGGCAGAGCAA

# Variants of: B1
# test method notes: exon inclusion enrichment index; higher = more inclusion; WT1 exon 5 minigene, HEK293
outcome measure: exon inclusion enrichment index

> print(dat)
                               var  test.value
 1           C6A U7A C9A U10A A20G        1.05
 2                    C6A U7A U10C        2.53
 3           C6A U7C C9A U10C C44U        1.32
 4           C6A U7C C9A U10C C22G         3.9
 5   G5A C6U U7A G8U C9A G28U A29C      0.0467
 6                        C9G U10G      0.0139
 7      C6A U7C C9A U10C A20G G21U        1.35
 8                     U4C G8U C9U        2.06
 9           C6A U7C C9A U10C U17A        3.36
10        G5A C6U U7A G8U C9A A35G       0.017
11                            G42C       0.853
12      C6A U7A C9A U10A G46C A47C       0.943
13       G5C C6A U7C G8A U10A A30G      0.0971
14  G5C C6A U7C G8A U10A G43A C44G        0.71
15  G5C C6U G8C C9U U10C A14U G15A       0.472
16       G5C C6U G8C C9U U10C G28U       0.486
17      G5A U7C G8A U10C A31U U32G        1.32
18       G5A C6G U7G C9A C19A A20U     0.00128
19      C6A U7C C9A U10C A31G U32C        4.39
20        U4G G5U C6U G8C C9U U10C       0.824
21           G5A U7C G8A U10C G21C        2.25
22      C6A U7C C9A U10C C18U C19A       0.757
23           G5A U7C G8A U10C G28A       0.733
24   G5A C6U U7A G8U C9A A47C G48C      0.0967
25           C6A U7C C9A U10C A20G        3.85
26    U3G U4G G5C C6A U7C G8A U10A      0.0147
27                       G34U A35U      0.0144
28      G5C C6G U7C U10C G13A A14U        2.93
29       G5A C6G U7G C9A A47C G48C     0.00224
30                G5C G8C C9U U10C       0.273
31                            A14G      0.0948
32           G5U G8U C9U A45G G46U      0.0933
33  G5C C6A U7C G8A U10A A25C G26C       0.037
34                    G5A G8C U10C        1.52
35                    C6U C9A U10C        1.46
36           C6A U7C C9A U10C A40U        2.61
37                       A25C G26A       0.448
38                            G42U       0.329
